# target_under_test: Replicase polyprotein 1ab (Severe acute respiratory syndrome coronavirus 2, UniProt P0DTD1)
# run_parameters: read-out: IC50

>  <record_smiles>
Cc1cccc2nc(CNC(=S)NCc3cccnc3)cn12

>  <relational_operator>
>

>  <IC50 [µM]>
100

$$$$
>  <record_smiles>
Cc1cccc2nc(CSC(=S)NCc3cccnc3)cn12

>  <relational_operator>
=

>  <IC50 [µM]>
1.46

$$$$
>  <record_smiles>
S=C(NCc1cccnc1)OCc1ccccc1

>  <relational_operator>
>

>  <IC50 [µM]>
100

$$$$
>  <record_smiles>
CCSC(=S)NCc1cccnc1

>  <relational_operator>
=

>  <IC50 [µM]>
22.4

$$$$
>  <record_smiles>
S=C([S-])NCc1cccnc1.[K+]

>  <relational_operator>
=

>  <IC50 [µM]>
1.36

$$$$
>  <record_smiles>
S=C(NCc1cccnc1)SCc1ccccc1

>  <relational_operator>
=

>  <IC50 [µM]>
9.36

$$$$

====

# target_under_test: Procathepsin L (Homo sapiens, UniProt P07711)
# Sequence (P07711 whole entry): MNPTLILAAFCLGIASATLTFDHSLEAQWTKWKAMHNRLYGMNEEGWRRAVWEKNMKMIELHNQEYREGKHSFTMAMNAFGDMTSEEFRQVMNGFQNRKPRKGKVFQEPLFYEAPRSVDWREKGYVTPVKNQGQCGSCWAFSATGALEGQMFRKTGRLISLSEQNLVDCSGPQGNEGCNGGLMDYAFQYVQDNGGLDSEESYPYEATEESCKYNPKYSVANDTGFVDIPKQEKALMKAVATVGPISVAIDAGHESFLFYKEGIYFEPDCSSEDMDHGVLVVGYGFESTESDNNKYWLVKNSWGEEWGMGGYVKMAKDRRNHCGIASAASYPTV
# run_parameters: read-out: IC50

>  <record_smiles>
S=C([S-])NCc1cccnc1.[K+]

>  <IC50, µM>
42.8

$$$$
>  <record_smiles>
Cc1cccc2nc(CSC(=S)NCc3cccnc3)cn12

>  <IC50, µM>
122

$$$$
